Source: patent US20260265238A1

Biological target: SMARCA4-HiBiT HeLa cells (protein which is expressed from the SMARCA4 gene) (Homo sapiens)
Construct: protein which is expressed from the SMARCA2 and SMARCA4 genes; host or cells: HeLa (SMARCA4-HiBiT engineered line)
Sequence (P51532 whole entry): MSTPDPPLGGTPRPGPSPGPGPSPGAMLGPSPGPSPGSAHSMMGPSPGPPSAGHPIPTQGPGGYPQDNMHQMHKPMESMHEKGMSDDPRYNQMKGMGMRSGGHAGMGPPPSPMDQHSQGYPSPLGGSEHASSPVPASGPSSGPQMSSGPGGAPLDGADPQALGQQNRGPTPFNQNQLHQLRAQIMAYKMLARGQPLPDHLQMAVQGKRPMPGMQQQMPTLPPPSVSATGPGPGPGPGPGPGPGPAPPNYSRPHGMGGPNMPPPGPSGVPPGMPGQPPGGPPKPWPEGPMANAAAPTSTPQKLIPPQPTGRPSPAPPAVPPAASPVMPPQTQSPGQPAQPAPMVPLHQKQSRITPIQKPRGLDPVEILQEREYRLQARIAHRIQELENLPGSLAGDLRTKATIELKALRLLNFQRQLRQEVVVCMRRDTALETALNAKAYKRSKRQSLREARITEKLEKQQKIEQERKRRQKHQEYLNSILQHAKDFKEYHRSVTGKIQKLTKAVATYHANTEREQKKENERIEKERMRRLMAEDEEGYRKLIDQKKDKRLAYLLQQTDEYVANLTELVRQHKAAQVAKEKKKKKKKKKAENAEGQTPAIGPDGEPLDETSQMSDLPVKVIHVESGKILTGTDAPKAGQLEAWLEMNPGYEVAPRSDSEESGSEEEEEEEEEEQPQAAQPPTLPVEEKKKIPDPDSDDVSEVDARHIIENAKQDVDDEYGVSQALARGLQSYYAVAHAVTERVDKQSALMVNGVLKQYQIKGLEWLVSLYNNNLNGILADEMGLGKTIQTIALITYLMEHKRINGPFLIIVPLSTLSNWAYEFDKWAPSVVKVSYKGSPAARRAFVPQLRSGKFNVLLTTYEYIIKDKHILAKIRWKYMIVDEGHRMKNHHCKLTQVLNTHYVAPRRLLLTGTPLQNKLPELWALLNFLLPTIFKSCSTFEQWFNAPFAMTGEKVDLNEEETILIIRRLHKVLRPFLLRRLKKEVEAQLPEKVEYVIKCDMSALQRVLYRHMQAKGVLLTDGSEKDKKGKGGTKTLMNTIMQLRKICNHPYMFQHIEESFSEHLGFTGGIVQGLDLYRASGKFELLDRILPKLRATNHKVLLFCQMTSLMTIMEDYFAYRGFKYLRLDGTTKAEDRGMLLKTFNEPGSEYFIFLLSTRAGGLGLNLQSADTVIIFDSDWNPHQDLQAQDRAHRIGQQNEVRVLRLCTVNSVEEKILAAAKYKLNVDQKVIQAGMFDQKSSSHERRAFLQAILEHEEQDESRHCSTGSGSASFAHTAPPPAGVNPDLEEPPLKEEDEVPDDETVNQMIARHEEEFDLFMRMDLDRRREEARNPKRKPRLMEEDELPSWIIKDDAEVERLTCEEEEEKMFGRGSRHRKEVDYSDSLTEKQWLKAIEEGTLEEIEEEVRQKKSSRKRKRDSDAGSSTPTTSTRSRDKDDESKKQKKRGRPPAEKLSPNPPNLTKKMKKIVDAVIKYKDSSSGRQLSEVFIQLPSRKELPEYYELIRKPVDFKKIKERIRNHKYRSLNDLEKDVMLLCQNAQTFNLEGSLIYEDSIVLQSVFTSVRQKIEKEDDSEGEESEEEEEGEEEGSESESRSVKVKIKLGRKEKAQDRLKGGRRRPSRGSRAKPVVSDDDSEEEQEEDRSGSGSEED
Assay: SMARCA4 degradation assay (HiBiT-fusion HeLa cell line, 24 h, luminescence)
Type: cell-based
Conditions: @ 1 μM
value_type: inhibition at 1 µM

Nc1nnc(-c2ccccc2O)cc1N1C2CCC1CN(c1ccnc(C#CCn3cncn3)n1)C2 [Compound P-283] | < 30%
C[C@@H]1CCN(c2cc(-c3ccccc3O)nnc2N)CCN1c1ccnc(C#CCN2CCC3(CC2)COC3)n1 [Compound P-199] | 30 to 70%
Nc1nnc(-c2ccccc2O)cc1N1C[C@@H]2C[C@H]1CN2c1ccnc(C#CCNC(=O)c2cc3ncccn3n2)n1 [Compound P-30] | 30 to 70%
Nc1nnc(-c2ccccc2O)cc1N1C[C@H]2C[C@@H]1CN2c1ccnc(C#CCNC(=O)c2cc3ncccn3n2)n1 [Compound P-25] | > 70%

// CN(C)CC#Cc1nccc(N2CCCC(c3cc(-c4ccccc4O)nnc3N)CC2)n1 (stereo not drawn) [Compound P-172] : inhibition at 1 µM value = 30 to 70%

Quick note, inhibition at 1 µM for Nc1nnc(-c2ccccc2O)cc1N1CCC2(CCN(c3ccnc(C#CCNC(=O)c4cc5ncccn5n4)n3)CC2)CC1 [Compound P-42] landed at 30 to 70%
